Target: human CB2 (hCB2) receptor (Homo sapiens, UniProt P34972)
Construct: expressed in transfected cells; host or cells: CHO-K1
Sequence (P34972 whole entry): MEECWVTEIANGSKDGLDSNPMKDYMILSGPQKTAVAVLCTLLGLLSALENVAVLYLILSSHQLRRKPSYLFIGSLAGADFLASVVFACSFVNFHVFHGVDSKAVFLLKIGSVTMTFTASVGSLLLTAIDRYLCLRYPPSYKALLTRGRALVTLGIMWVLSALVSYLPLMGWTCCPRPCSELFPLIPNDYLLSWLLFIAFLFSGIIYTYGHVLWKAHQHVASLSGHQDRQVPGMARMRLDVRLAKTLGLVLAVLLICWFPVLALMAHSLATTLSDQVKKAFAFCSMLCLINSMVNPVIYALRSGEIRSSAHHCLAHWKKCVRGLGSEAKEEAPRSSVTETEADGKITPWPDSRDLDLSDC
Test: Inhibition of forskolin-activated cAMP production upon activation of hCB2 (HTRF), CHO-K1 cells
Format: cell-based
Details: Table C-1; selectivity hCB2 over hCB1
measured.attribute: ratio CB2 agonism over CB1 agonism
One number for each entry.

Use these answered entries as a reference point.
| compound | measured.attribute | value.measured |
| --- | --- | --- |
| CC(C)(C)c1nc2cc(S(=O)(=O)c3ccc(-c4ncon4)s3)ccc2n1CC1CCOCC1 | ratio CB2 agonism over CB1 agonism | 347 |
| Cc1noc(C)c1S(=O)(=O)c1ccc2c(c1)nc(C(C)(C)C)n2CC1CCOCC1 | ratio CB2 agonism over CB1 agonism | 556 |
| Cc1nc(-c2csc(S(=O)(=O)c3ccc4c(c3)nc(C(C)(C)C)n4CC3CCOCC3)c2)no1 | ratio CB2 agonism over CB1 agonism | 676 |
| CC(C)(C)c1nc2cc(S(=O)(=O)c3ncc(C(F)(F)F)cc3Cl)ccc2n1CC1CCOCC1 | ratio CB2 agonism over CB1 agonism | 135 |

// batch mode: one ratio CB2 agonism over CB1 agonism value per listed entry
1. COCCCNc1cc(S(=O)(=O)c2ccc3c(c2)nc(C(C)(C)C)n3CC2CCOCC2)ccn1
2. CC(C)(C)c1nc2cc(S(=O)(=O)c3nccc(C(N)=O)n3)ccc2n1CC1CCOCC1
3. CC(C)(C)c1nc2cc(S(=O)(=O)c3ccnc(OCC(F)(F)F)c3)ccc2n1CC1CCOCC1
4. COCCCn1cc(S(=O)(=O)c2ccc3c(c2)nc(C(C)(C)C)n3CC2CCOCC2)cn1

[1129, 417, 398, 2951]

---

For each record, write down the corresponding EC50.
Target: human CB1 (hCB1) receptor (Homo sapiens, UniProt P21554)
Construct: expressed in transfected cells; host or cells: CHO-K1
Sequence (P21554 whole entry): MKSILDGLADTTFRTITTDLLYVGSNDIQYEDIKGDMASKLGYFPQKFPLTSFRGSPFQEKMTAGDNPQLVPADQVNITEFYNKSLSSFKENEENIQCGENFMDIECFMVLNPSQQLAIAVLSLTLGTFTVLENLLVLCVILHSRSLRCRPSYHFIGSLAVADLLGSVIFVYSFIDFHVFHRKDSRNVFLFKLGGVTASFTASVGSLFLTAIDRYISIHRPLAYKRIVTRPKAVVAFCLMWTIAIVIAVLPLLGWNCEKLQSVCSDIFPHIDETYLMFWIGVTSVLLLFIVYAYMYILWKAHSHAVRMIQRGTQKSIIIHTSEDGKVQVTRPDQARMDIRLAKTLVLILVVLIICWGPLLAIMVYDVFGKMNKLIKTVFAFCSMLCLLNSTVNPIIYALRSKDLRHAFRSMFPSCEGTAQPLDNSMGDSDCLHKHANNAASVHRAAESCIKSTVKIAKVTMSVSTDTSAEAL
Assay: Inhibition of forskolin-activated cAMP production upon activation of hCB1 (HTRF), CHO-K1 cells
Assay type: cell-based
Settings: CB1 pEC50, hCB1-CHO-K1 cells, forskolin-activated cAMP, pEC50=-log(EC50)

Consider the following illustrative entries.
| molecule.smiles | EC50 |
| --- | --- |
| CC(C)(C)c1nc2cc(S(=O)(=O)c3ccc(S(=O)(=O)N4CCOCC4)cn3)ccc2n1CC1CCOCC1 | > 10 µM |
| CC(C)(C)c1nc2cc(S(=O)(=O)c3ccnc(F)c3)ccc2n1CC1CCN(C=O)CC1 | > 10 µM |

Please list EC50 recorded for the compound "CO[C@H]1CC[C@@H](Cn2c(C(C)(C)C)nc3cc(S(=O)(=O)c4ccnc(F)c4)ccc32)CC1"
> 10 µM

---

Target: human CB2 (hCB2) receptor (Homo sapiens)
Construct: expressed in transfected cells; host or cells: CHO-K1
Test: Inhibition of forskolin-activated cAMP production upon activation of hCB2 (HTRF), CHO-K1 cells
Format: cell-based
Settings: Table C-3; comparison of art compounds A to E with compounds of the invention
Returns Criterion met if the recorded ratio CB2 over CB1 agonism is greater than or equal to 2000, and Criterion not met otherwise.

Worked set:
| molecule | qualitative.label |
| --- | --- |
| CC(C)(C)c1nc2cc(S(=O)(=O)c3ccnc(C#N)c3)ccc2n1CC1CCOCC1 [Co. No. 17] | Criterion met |
| CCOc1cc(S(=O)(=O)c2ccc3c(c2)nc(C(C)(C)C)n3CC2CCOCC2)ccn1 [Co. No. 9] | Criterion met |
| Cc1cc(S(=O)(=O)c2ccc3c(c2)nc(CC(C)(C)C)n3CC2CCOCC2)ccn1 [Co. No. 24] | Criterion not met |

As a next step, examine the molecule that follows.
Test whether the molecule CC(C)(C)c1nc2cc(S(=O)(=O)c3ccnc(O)c3)ccc2n1CC1CCOCC1 [Co. No. 8] records ratio CB2 over CB1 agonism of 2000 or higher.
Criterion not met
